# System: Zika virus NS2B-NS3 protease (linked construct)
# assay text: Primary screen NINDS Rhodamine qHTS for Zika virus inhibitors (AID 1347160); also: nearly all actives have a fitted effect of over 55% in size
# measurement context: purified NS2B-NS3 protease, Rhodamine110 substrate fluorescence; series mostly up to 112 µM
Records with an inconclusive call do not appear. Active and inactive are the calls of the source. Calls follow the shape of the dose curve; as a rule, active = well fitted inhibition curve with a large enough effect; inconclusive = small, poorly fitted or top-dose-only effect; inactive = no such curve, though single readings can be large or run the other way.
Bench note: report the call from 1 (active), -1 (inactive)

Examples with answers:
INSERT INTO measurements (compound, label_class) VALUES
  ('CC(C)CC1C(=O)O[C@H](C(C)C)C(=O)N(C)C(CC(C)C)C(=O)O[C@@H](C(C)C)C(=O)N(C)C(CC(C)C)C(=O)O[C@H](C(C)C)C(=O)N(C)C(CC(C)C)C(=O)O[C@@H](C(C)C)C(=O)N1C (some centres undefined)', 1),
  ('COC1=C(C2=C(OC)C(=O)c3cc4c(c(O)c3C2=O)C(=O)O[C@H](C)C4)C(=O)c2c(cc3c(c2O)C(=O)O[C@H](C)C3)C1=O', 1),
  ('CC[C@@H]1CN2CCc3c([nH]c4cccc(OC)c34)[C@@H]2C[C@@H]1/C(=C\OC)C(=O)OC', -1),
  ('CC[C@@H]1CN2CCC3(Nc4cccc(OC)c4C3=O)[C@@H]2C[C@@H]1/C(=C\OC)C(=O)OC (some centres undefined)', -1),
  ('C/C=C1/CN2CC[C@]34C(=C(C(=O)OC)[C@H]1C[C@H]23)Nc1ccccc14', -1),
  ('C/C(=C\[C@H](C)C(=O)C[C@H](O)CC1CC(=O)NC(=O)C1)[C@@H]1OC(=O)/C=C/CC/C=C/C=C/[C@@H]1C', 1),
  ('C=C(C)[C@H]1C(=O)c2c3c(cc4c5c(n1c24)[C@@]1(C)[C@@H](CC[C@H]2[C@](C)(/C=C/C=C(\C)C(=O)O)[C@@H](O)CC[C@@]21C)C5)C1=CC(C)(C)OC(C)(C)[C@H]1[C@@H]3O', 1),
  ('CO[C@H]1C[C@H](O[C@H]2[C@@H](O)C[C@H](O[C@H]3CC[C@]4(C=O)[C@H]5CC[C@]6(C)C(C7=CC(=O)OC7)CC[C@]6(O)[C@@H]5CC[C@]4(O)C3)O[C@@H]2C)O[C@H](C)[C@H]1O[C@H]1C[C@@H](OC)[C@@H](O[C@@H]2O[C@H](CO)[C@@H](O)[C@H](O)[C@H]2O)[C@@H](C)O1 (some centres undefined)', 1);

Please look at the following compound next.
input: Given CO[C@@]12c3c(C)cc(O)c4c(=O)occ(c34)C(=O)[C@@H]1[C@]13COC(=O)c4c(O)cc(C)c(c41)C(=O)[C@H]2[C@@H]3OC(C)=O , state the outcome it received in this test.
output: 1
